Attribute: MONOCYTE
species: Rattus norvegicus; assay: DrugMatrix - Regimen: Daily Repeat; format: toxicity, organism-based, Sprague-Dawley; design: regimen Daily Repeat, gender Male, age 6-8 weeks; details: in vivo, po, 1500 mg/kg, 72 h, tissue Blood, route oral GAVAGE, dose level High, time 3 day, vehicle .5 % CMC
readout: MONOCYTE (%)

INSERT INTO results (compound, unitname, recordedresult) VALUES
  ('O=C1CCc2cc(OCCCCc3nnnn3C3CCCCC3)ccc2N1', '%', 2.43),
  ('CCOC(=O)[C@H](CCc1ccccc1)N[C@@H](C)C(=O)N1[C@H](C(=O)O)C[C@@H]2CCC[C@@H]21', '%', 0),
  ('NS(=O)(=O)c1cc2c(cc1Cl)NCNS2(=O)=O [HYDROCHLOROTHIAZIDE]', '%', 0),
  ('COC(=O)c1ccc(O)cc1', '%', 1.33);
